test system: Huh-7; assay: Cytotoxicity against human Huh-7 cells infected with SARS-COV-2 assessed as reduction in cell viability by celltiter-glo luminescent cell viability assay; type: cell-based; conditions: huh-7
endpoint: CC50 (µM)
The answer is to be given in µM; state only the numeric part.

Data request: Tell me reported CC50 for CCC(CC)COC(=O)[C@H](C)N[P@](=O)(OC[C@H]1O[C@@](C#N)(c2ccc3c(N)ncnn23)[C@H](O)[C@@H]1O)Oc1ccccc1 , tested with Huh-7.
Data returned: 77

---

test system: West Nile virus; experiment: Antiviral activity against West Nile virus lineage 1 (Italy/2009) infected in pre-seeded Huh-7 cells assessed as inhibition of viral replication incubated for 48 hrs by immunodetection based plaque reduction assay; type: functional, organism-based; settings: Huh-7, 48 h
pIC50: −log10 of the molar value.
Assign fulfilled whenever pIC50 does not fall below 6; assign not fulfilled whenever it does.

Data request: Threshold query (pIC50 >= 6) on NC(=O)c1ncn([C@@H]2O[C@H](CO)[C@@H](O)[C@H]2O)n1
Data returned: not fulfilled

***
Data request: Can Fc1cccc(/N=N/c2nc(NCCOc3ccccc3)nc3[nH]cnc23)c1 be said to have pIC50 at or above 6?
Data returned: fulfilled

Data request: # repeat for FC(F)(F)c1cccc(Nc2nc(NCCOc3ccccc3)nc3[nH]cnc23)c1
Data returned: not fulfilled
